Numbers sourced from patent US11642314B2.

Measured solubility values are reported for all entries that follow.
- protocol.notes: Water solubility at 20° C.
- Assay type: physicochemical
- condition.set: in water at 20° C.; calcium salts according to b99

[[record]]
molecule = "CCC(C)C(=O)C(=O)O (stereo not shown)"
quantity = "solubility"
measured_result = "24.3 mg/mL"

[[record]]
molecule = "CC(C)C(=O)C(=O)O"
quantity = "solubility"
measured_result = "65 to 70 mg/mL"


Retrieve solubility measured for CSCCC(O)C(=O)O (stereo not drawn) [α-hydroxymethionine] and print it.
52 to 63 mg/mL

Retrieve solubility measured for CC(C)CC(=O)C(=O)O and print it.
11.9 to 12.5 mg/mL
